# Subject Of Test: CCKB receptor (guinea pig cerebral cortex) (Cavia porcellus, UniProt H0VZC5)
# Construct: CCKB (nM); other: guinea pig cerebral cortex membranes, 125I-Bolton-Hunter CCK 25 pM; Activity CCK-B [μM]; guinea pig cerebral cortex membranes
# Sequence (H0VZC5 1-426): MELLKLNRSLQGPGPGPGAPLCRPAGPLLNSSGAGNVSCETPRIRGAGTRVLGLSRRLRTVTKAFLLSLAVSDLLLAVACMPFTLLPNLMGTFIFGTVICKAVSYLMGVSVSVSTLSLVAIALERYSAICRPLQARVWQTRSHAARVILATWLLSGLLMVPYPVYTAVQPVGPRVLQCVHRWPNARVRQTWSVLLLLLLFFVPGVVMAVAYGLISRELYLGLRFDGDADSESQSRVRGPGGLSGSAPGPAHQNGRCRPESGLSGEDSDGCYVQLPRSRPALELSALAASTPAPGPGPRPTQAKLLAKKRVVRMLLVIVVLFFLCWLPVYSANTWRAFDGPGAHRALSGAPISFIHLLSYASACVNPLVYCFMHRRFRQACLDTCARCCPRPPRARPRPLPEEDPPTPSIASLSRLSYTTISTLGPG
# Assay Overview: 125I-CCK-8 receptor binding assay, CCKB
# Test Settings: guinea pig cerebral cortex membranes, 125I-Bolton-Hunter CCK 25 pM; read-out: CCKB
# Procedure: CCKA and CCKB receptor binding assays were performed, by using guinea pig cerebral cortex (CCKB) or rat pancreas (CCKA). […] Binding was achieved using a radioligand ^125I-Bolton-Hunter labeled CCK, NEN at 25 pM. […] The membrane pellets were washed twice with water and the bound radioactivity was measured in a Packard Cobra Auto-gamma counter (B5005). […]
pIC50: −log10 of the molar value.
pIC50 values by entry
Metric: pIC50

> print(dat)
                                   compound  readout.number
1  C#CCOC1OC(=O)C(Cl)=C1NCc1ccccc1 (centres unmarked)            7.85
2  C#CCOC1OC(=O)C(Cl)=C1N(C(C)C)C1CCCCC1 (centres unmarked)            8.10
3  CCCCCCNC1=C(Cl)C(=O)OC1OC (centres unmarked)            7.92
4  CC(C)CNC1=C(Cl)C(=O)OC1c1ccccc1 (centres unmarked)            7.96
5  CCN(C1=C(Cl)C(=O)OC1CC(=O)c1ccc(Cl)cc1)c1cccc(C)c1 (centres unmarked)            7.72

Where these numbers come from: patent US20070123718A1
